- System: L1210
- ASSAY COMMENT: Antiproliferative activity against mouse L1210 cells assessed as cell viability at 0.1 mM after 72 hrs by trypan blue dye based hemocytometer analysis relative to control
- Assay type: functional
- CONDITION DETAILS: L1210, 72 h, read-out: Activity
Response field label takes yes when viability at 100 µM is strictly below 60% and no in all other cases.

| COMPOUND STRUCTURE STRING | CLASSIFICATION |
| --- | --- |
| CC(C)(C)CNC(=O)Nc1ncnc2[nH]ncc12 | yes |
| CCCCCNC(=O)Nc1ncnc2[nH]ncc12 | yes |
| O=C(Nc1ccc(Cl)cc1)Nc1ncnc2[nH]ncc12 | yes |
| CCCCCCCCNC(=O)Nc1ncnc2[nH]ncc12 | yes |
| O=C(O)CNC(=O)Nc1ncnc2[nH]ncc12 | no |
| CC(C)Nc1ncnc2[nH]ncc12 | no |
| O=C(Nc1ncnc2[nH]ncc12)NC12CC3CC(CC(C3)C1)C2 | yes |
| CC(C)NC(=O)Nc1ncnc2[nH]ncc12 | no |
| O=C(NCCCCc1ccccc1)Nc1ncnc2[nH]ncc12 | yes |
